- ASSAYED SYSTEM: A2A receptor (Homo sapiens, UniProt P29274)
- Sequence (P29274 whole entry): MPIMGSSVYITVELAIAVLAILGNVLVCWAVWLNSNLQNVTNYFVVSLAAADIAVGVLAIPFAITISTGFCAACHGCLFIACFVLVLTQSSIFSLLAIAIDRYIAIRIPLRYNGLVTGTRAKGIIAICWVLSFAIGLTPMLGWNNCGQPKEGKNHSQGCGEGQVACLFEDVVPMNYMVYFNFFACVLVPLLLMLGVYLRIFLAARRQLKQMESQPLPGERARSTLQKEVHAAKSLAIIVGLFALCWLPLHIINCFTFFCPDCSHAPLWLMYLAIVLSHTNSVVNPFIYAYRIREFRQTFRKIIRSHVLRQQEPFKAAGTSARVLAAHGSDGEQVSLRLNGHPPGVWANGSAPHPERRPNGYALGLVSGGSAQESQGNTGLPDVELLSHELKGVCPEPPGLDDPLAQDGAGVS
- PROTOCOL DESCRIPTION: Inhibition of cAMP production in HEK cells
- Type: cell-based
- MEASUREMENT CONDITIONS: IC50 (nM) (3 nM NECA as agonist, 0.1% BSA), HEK-293 cells with A2A receptor, 3 nM NECA as agonist, 0.1% BSA
- Experimental: When the A2A receptor is activated, is induces the production of cAMP. HEK-293 cells with a stable transfection of A2A receptor were bought from PerkinElmer® (# ES-011-C). […] Fresh media without the selection marker was added on the day immediately before the experiment to stop selection pressure. […] Compounds of the present invention were diluted 100× in either of the buffers depending on the assay performed. […] The TR-FRET signal was measured after 1 hour using a Spectramax Paradigm (Molecular Devices).
PARAMETER: IC50 (nM)
Your answer should be a plain number; it is taken to be in nM.

> print(dat)
                                    molecule  measured.number
 1  NC(=O)c1cccc(N2CCN(CCn3c(=O)sc4c3nc(N)n3nc(-c5ccco5)nc43)CC2)c1              1.4
 2  NCCNC(=O)COc1ccc(N2CCN(CCn3c(=O)sc4c3nc(N)n3nc(-c5ccco5)nc43)CC2)c(F)c1              0.3
 3  Nc1nc2c(sc(=O)n2CCN2CCN(c3ccc(O[C@H]4CNC[C@@H]4F)cc3F)CC2)c2nc(-c3ccco3)nn12              0.7
 4  Nc1nc2c(sc(=O)n2CCN2CCN(c3ccc(OCCO)cc3)CC2)c2nc(-c3ccco3)nn12              3.4
 5  CN(C)CCNC(=O)c1ccc(N2CCN(CCn3c(=O)sc4c3nc(N)n3nc(-c5ccco5)nc43)CC2)c(F)c1              4.3
 6  Nc1nc2c(sc(=O)n2CCN2CCN(c3ccc(C(=O)NCCN4CCOCC4)cc3F)CC2)c2nc(-c3ccco3)nn12              0.3
 7  C[S@+]([O-])CCNC(=O)c1ccc(N2CCN(CCn3c(=O)sc4c3nc(N)n3nc(-c5ccco5)nc43)CC2)c(F)c1              1.5
 8  Nc1nc2c(sc(=O)n2CCN2CCN(c3cc(OCC(=O)O)c(F)cc3F)CC2)c2nc(-c3ccco3)nn12              0.2
 9  C[S@@+]([O-])CCNC(=O)c1ccc(N2CCN(CCn3c(=O)sc4c3nc(N)n3nc(-c5ccco5)nc43)CC2)c(F)c1              2.3
10  Nc1nc2c(sc(=O)n2CCN2CCN(c3ccc(C(=O)NCC(O)CO)cc3F)CC2)c2nc(-c3ccco3)nn12 (centres unmarked)              0.3

Form: molecule = Nc1nc2c(sc(=O)n2CCN2CCN(c3cc(O[C@H]4CC[S@+]([O-])CC4)c(F)cc3F)CC2)c2nc(-c3ccco3)nn12 ; IC50 = 0.8
